- Tested on: enone reductase
- TEST_SUMMARY: Substrate specificity of the enone reductase (standard enzyme assay with various substrates)
- Assay type: biochemical, Candida kefyr (Candida macedoniensis) IFO 0960
- CONDITION_DETAILS: as substrate, 0.05% final concentration, 30° C., ketoisophorone = 100
- Experimental: The standard enzyme assay was performed as follows: a total volume of 1 ml of the basal reaction mixture (200 μl of 1 M Tris-HCl buffer pH 7.5, 100 μl of 80 mM NADH or NADPH, 100 μl of 0.658 M ketoisophorone, 600 μl H2O) was supplemented by 5 μl of the enzyme solution and incubated at 40° C. […] The extract was analyzed by gas chromatography [column: ULBON HR-20M (Shinwa, Japan) 0.25 mmφ×30 m, column temperature: 160° C. […]
# key: entry, value: Relative Activity (%)
Hi, when you answer, please include the unit after the number. Thanks!

Example entries and their recorded answers appear below.
INSERT INTO measurements (compound, measured_endpoint, reported_result) VALUES
  ('C=CC(C)=O [3-Butene-2-one]', 'Relative Activity (%)', '403.3%'),
  ('O=CC=Cc1ccccc1 [Cinnamaldehyde]', 'Relative Activity (%)', '216.7%'),
  ('CC1=CC(=O)CC(C)(C)C1=O [Ketoisophorone, 2,6,6-trimethyl-2-cyclohexene-1,4-dione]', 'Relative Activity (%)', '100%'),
  ('O=C1C=CCCC1 [2-Cyclohexen-1-one]', 'Relative Activity (%)', '252.1%');

// moving on: another record for Relative Activity (%)
GET /value?item= O=[N+]([O-])C1=CCCCC1 [1-Nitro-1-cyclohexen] &field=Relative Activity (%) returns 373.8%

---

- Test system: enone reductase
- TEST_SUMMARY: Effect of metal ions and other compounds on the enzyme activity
- Type: biochemical, Candida kefyr (Candida macedoniensis) IFO 0960
MEASURED_ENDPOINT: Relative Activity (%)
Report the figure in % without appending any unit label.

INSERT INTO assay_data (compound, reported_result) VALUES
  ('O=C(O)CI [Iodoacetate]', 93.6);

GET /value?item= [Ca+2].[Cl-].[Cl-] &field=Relative Activity (%) returns 108

GET /value?item= O=S(=O)([O-])[O-].[Cu+2] &field=Relative Activity (%) returns 55.9

GET /value?item= [Cl][Ni][Cl] &field=Relative Activity (%) returns 108

GET /value?item= [NH4+].[O]=[V](=[O])[O-] &field=Relative Activity (%) returns 9.6

GET /value?item= O=C(O)CN(CCN(CC(=O)O)CC(=O)O)CC(=O)O &field=Relative Activity (%) returns 110

GET /value?item= [Cl][Cd][Cl] &field=Relative Activity (%) returns 104

GET /value?item= [Cl-].[K+] &field=Relative Activity (%) returns 103

GET /value?item= O=[N+]([O-])[O-].[Ag+] &field=Relative Activity (%) returns 49.1

GET /value?item= [Cl][Mn][Cl] &field=Relative Activity (%) returns 94.6

GET /value?item= O=[N+]([O-])[O-].O=[N+]([O-])[O-].[Pb+2] &field=Relative Activity (%) returns 0

---

# key: entry, value: Relative Activity (%)
- System: enone reductase
- TEST_SUMMARY: Effect of metal ions and other compounds on the enzyme activity
- Format: biochemical, Candida kefyr (Candida macedoniensis) IFO 0960
Report the figure in % without appending any unit label.

INSERT INTO assay_data (chemical_smiles, target_or_test_system, scale_unit, reported_result) VALUES
  ('N#C[S-].[Na+]', 'enone reductase', '%', 93.6);

GET /value?item= O=S(=O)([O-])[O-].[Be+2] &field=Relative Activity (%) returns 80.9

GET /value?item= O=S(=O)([O-])[O-].[Zn+2] &field=Relative Activity (%) returns 101

GET /value?item= [F-].[Na+] &field=Relative Activity (%) returns 101

GET /value?item= [Cl-].[Rb+] &field=Relative Activity (%) returns 107

GET /value?item= C[n+]1c2cc(N)ccc2cc2ccc(N)cc21.[Cl-] &field=Relative Activity (%) returns 0

GET /value?item= [Cl-].[Cl-].[Mg+2] &field=Relative Activity (%) returns 111

GET /value?item= [Cl-].[Na+] &field=Relative Activity (%) returns 108
